Target: human PD-L1/His fusion protein (human, UniProt Q9NZQ7 19-239)
Sequence (Q9NZQ7 19-239 limits assumed): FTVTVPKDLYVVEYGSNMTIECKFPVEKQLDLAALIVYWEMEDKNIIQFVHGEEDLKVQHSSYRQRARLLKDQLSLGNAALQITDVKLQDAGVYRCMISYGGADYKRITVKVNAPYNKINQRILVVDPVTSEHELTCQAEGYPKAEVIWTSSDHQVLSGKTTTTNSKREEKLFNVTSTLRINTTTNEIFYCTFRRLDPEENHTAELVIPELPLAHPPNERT
Experimental details: BLI off-rate; test group 1
# Off-Rate Ratio to that of EM0005-86c listing for each entry below

# Binder, Off-Rate Ratio to that of EM0005-86c (%)
records = [
    ("HuEM0005-86-4 (antibody, human IgG1, V domains shown) VH: EVQLVQSGAEVKKPGASVKVSCKASGYTFTTYGINWVRQAPGQGLEWIGYIYIGNGYTEYNEKFKGRVTLTSDTSTSTAYMELSSLRSDDTAVYYCARDLMVIAPKTMDYWGQGTTVTVSS VL: DIQMTQSPSSVSASVGDRVTITCKASQDVGTAVAWYQQKPGKAPKLLIYWASTRHTGVPDRFTGSGSGTDFTLTISSLQPEDFATYYCQQYSSYPYTFGGGTKVEIK", 78),
    ("HuEM0005-86-6 (antibody, human IgG1, V domains shown, measured without the G55A change) VH: EVQLVQSGAEVKKPGASVKVSCKTSGYTFTTYGINWVRQAPGQGLEWIGYIYIGNGYTEYNEKFKGKATLTSDPSTRTAYMELSSLRSDDTAVYYCARDLMVIAPKTMDYWGQGTTVTVSS VL: DIQMTQSPSSVSASVGDRVTITCKASQDVGTAVAWYQQKPGKAPKLLIYWASTRHTGVPDRFTGSGSGTDFTLTISSLQPEDFATYYCQQYSSYPYTFGGGTKVEIK", 99),
    ("HuEM0005-86-1 (antibody, human IgG1, V domains shown) VH: EVQLVQSGAEVKKPGASVKVSCKASGYTFTTYGINWVRQAPGQGLEWMGYIYIGNGYTEYNEKFKGRVTMTTDTSTSTAYMELSSLRSDDTAVYYCARDLMVIAPKTMDYWGQGTTVTVSS VL: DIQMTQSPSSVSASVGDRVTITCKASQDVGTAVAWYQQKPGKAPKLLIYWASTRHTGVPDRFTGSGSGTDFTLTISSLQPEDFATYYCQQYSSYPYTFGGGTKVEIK", 120),
    ("HuEM0005-86-3 (antibody, human IgG1, V domains shown) VH: EVQLVQSGAEVKKPGASVKVSCKASGYTFTTYGINWVRQAPGQGLEWMGYIYIGNGYTEYNEKFKGRVTLTSDTSTSTAYMELSSLRSDDTAVYYCARDLMVIAPKTMDYWGQGTTVTVSS VL: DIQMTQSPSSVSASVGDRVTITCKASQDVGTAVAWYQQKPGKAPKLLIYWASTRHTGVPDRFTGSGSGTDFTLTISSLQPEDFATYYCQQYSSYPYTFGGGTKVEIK", 115),
]
